The origin of these recorded values is ChEMBL document CHEMBL3988442.

test system: Wolbachia pipientis; test: Anti-Wolbachia Cell-Based Screen; assay type: functional; parameters: scale not given: in the data most compounds retested in dose-response had high values; details: 5 µM
Out of some 48,000 compounds screened, about 13,000 (27%) showed an effect of 50% or more. The list shows a part of the results.
Kindly supply the reported Percent Effect values for the records listed here.
Report the value in % with no unit label.

Input: Dear colleague, please send me the reported Percent Effect for Cc1cnn(CC(C)NCc2cc(=O)n3cc(C)ccc3n2)c1 (centres undefined) when you can.
Output: 5.917

Input: Dear colleague, please send me the reported Percent Effect for `O=C(CCCNC(=O)Nc1ccc(F)cc1F)Nc1cn[nH]c1` when you can.
Output: -17.8

Input: Dear colleague, please send me the reported Percent Effect for Cc1cc2n(n1)CC(CNCc1ccnc(-n3ccnc3C)c1)CN2 (centres undefined) when you can.
Output: -4.434

Input: Dear colleague, please send me the reported Percent Effect for `CC(=O)N(CCc1ccccc1)CC(=O)NC(C)(C)C#N` when you can.
Output: -33.05

Input: Dear colleague, please send me the reported Percent Effect for `CCCC(=O)N1CCC2(CC1)COC2` when you can.
Output: -43.8

Input: Dear colleague, please send me the reported Percent Effect for `Cc1ccc2nc(CN(Cc3ccc(C)o3)C(C)C)cc(=O)n2c1` when you can.
Output: -6.244

Input: Dear colleague, please send me the reported Percent Effect for c1nc(N2CCCCC2Cn2cncn2)c2ccsc2n1 (centres undefined) when you can.
Output: 0.5498

Input: Dear colleague, please send me the reported Percent Effect for Cc1cc(NC(=O)CN2CCCC(Cn3cncn3)C2)on1 (centres undefined) when you can.
Output: 0.4633

Input: Dear colleague, please send me the reported Percent Effect for `O=S(=O)(NCCNc1cc(-n2cccn2)ncn1)c1cccs1` when you can.
Output: 12.03

Input: Dear colleague, please send me the reported Percent Effect for `Cc1ccc2nc(CSCC(=O)Nc3nnc(C(C)C)s3)cc(=O)n2c1` when you can.
Output: 91.49

Input: Dear colleague, please send me the reported Percent Effect for `Cc1nnc(NC(=O)CSCc2cc(=O)n3ccccc3n2)s1` when you can.
Output: 113.7

Input: Dear colleague, please send me the reported Percent Effect for Cc1ccc(C(=O)NC(CN2CCCC2)c2ccccc2)c(=O)[nH]1 (centres undefined) when you can.
Output: -7.426

Input: Dear colleague, please send me the reported Percent Effect for `Cc1[nH]ncc1CCCNC(=O)Nc1ccccc1` when you can.
Output: -6.052

Input: Dear colleague, please send me the reported Percent Effect for Cc1cccc(-c2noc(CN3CCCC(Cn4cncn4)C3)n2)c1 (centres undefined) when you can.
Output: 6.393

Input: Dear colleague, please send me the reported Percent Effect for Cc1cc(CN2CCCC(Cn3cncn3)C2)on1 (centres undefined) when you can.
Output: 123.2

Input: Dear colleague, please send me the reported Percent Effect for c1ccc(Oc2cc(CNCC3CNc4ccnn4C3)ccn2)cc1 (centres undefined) when you can.
Output: 3.776

Input: Dear colleague, please send me the reported Percent Effect for Cc1cc(CN2CCCC(Cn3cncn3)C2)no1 (centres undefined) when you can.
Output: 117

Input: Dear colleague, please send me the reported Percent Effect for `Cc1ccc(C(=O)Nc2cnn(CC(=O)NC3CCCC3)c2)c(=O)[nH]1` when you can.
Output: -2.747

Input: Dear colleague, please send me the reported Percent Effect for CSC(C)C(=O)N1CCC(Oc2cc(C)ccc2F)(C(=O)O)CC1 (centres undefined) when you can.
Output: -19.74

Input: Dear colleague, please send me the reported Percent Effect for Cc1cc(NC(=O)CN2CCCC(Cn3cncn3)C2)no1 (centres undefined) when you can.
Output: -8.5

Input: Dear colleague, please send me the reported Percent Effect for Cc1ccc(C(=O)NC2CCCCNC2=O)c(=O)[nH]1 (centres undefined) when you can.
Output: -8.505

Input: Dear colleague, please send me the reported Percent Effect for CC(Cn1cccn1)NC(=O)NCCc1ccc(Cl)s1 (centres undefined) when you can.
Output: 2.539

Input: Dear colleague, please send me the reported Percent Effect for c1cc2n(n1)CC(CNCc1ccc(OC3CCCC3)nc1)CN2 (centres undefined) when you can.
Output: 90.58

Input: Dear colleague, please send me the reported Percent Effect for Cc1ccc(-c2cc(C)nc(C3CCCN3S(C)(=O)=O)n2)cc1 (centres undefined) when you can.
Output: 112.5

Input: Dear colleague, please send me the reported Percent Effect for CN(C)C(C(=O)N1CCC(CCO)CC1)c1ccccc1F (centres undefined) when you can.
Output: -9.373

Input: Dear colleague, please send me the reported Percent Effect for `Cc1nc(CCCNC(=O)Nc2cc(F)cc(F)c2)n[nH]1` when you can.
Output: 105.8

Input: Dear colleague, please send me the reported Percent Effect for c1ccc(-c2nc(CN3CCCC(Cn4cncn4)C3)co2)cc1 (centres undefined) when you can.
Output: 5.722

Input: Dear colleague, please send me the reported Percent Effect for `Cc1ccc(CNC(=O)Nc2nnc(C(C)C)s2)n1C` when you can.
Output: -5.821

Input: Dear colleague, please send me the reported Percent Effect for `Cc1ccc(Sc2ccc(N3CCC(C(=O)O)CC3)nn2)cc1` when you can.
Output: 6.07

Input: Dear colleague, please send me the reported Percent Effect for `Cc1ccc(C(=O)NCCN2CCOCC2)c(=O)[nH]1` when you can.
Output: 10.08

Input: Dear colleague, please send me the reported Percent Effect for CC(Cn1cccn1)NC(=O)NCc1cccnc1 (centres undefined) when you can.
Output: 125.3

Input: Dear colleague, please send me the reported Percent Effect for `Cc1ccc(C(=O)N2CCSCC2)cc1NC(C)C` when you can.
Output: -20.08

Input: Dear colleague, please send me the reported Percent Effect for `Cc1nc2ccc(-n3ncnc3[C@@H]3CCCN3S(C)(=O)=O)cc2s1` when you can.
Output: -0.8415

Input: Dear colleague, please send me the reported Percent Effect for `Cc1nc(C(C)(C)NC(=O)Nc2cccc(C#N)c2)no1` when you can.
Output: -15.63

Input: Dear colleague, please send me the reported Percent Effect for `Cc1nc(CCCNC(=O)Nc2ccc(F)cc2F)n[nH]1` when you can.
Output: 105.4

Input: Dear colleague, please send me the reported Percent Effect for Cc1nc2ccccc2nc1CN1CCCC(Cn2cncn2)C1 (centres undefined) when you can.
Output: -7.654

Input: Dear colleague, please send me the reported Percent Effect for `Cc1[nH]ncc1CCCNC(=O)Nc1ccc(F)cc1` when you can.
Output: 17.19

Input: Dear colleague, please send me the reported Percent Effect for CN1CCCC(N(C)C(=O)c2ccc(NC(=O)c3ccc[nH]3)cc2)C1 (centres undefined) when you can.
Output: -8.212

Input: Dear colleague, please send me the reported Percent Effect for Cc1ccc(CNC(=O)NC(C)Cn2cccn2)cn1 (centres undefined) when you can.
Output: 102.7

Input: Dear colleague, please send me the reported Percent Effect for `Cc1nc(C)c(CCN2CCC(Oc3ccccc3F)CC2)s1` when you can.
Output: -50.47

Input: Dear colleague, please send me the reported Percent Effect for `c1cncc(OC2CCN(CCn3cc4ccccc4n3)CC2)c1` when you can.
Output: 92.09

Input: Dear colleague, please send me the reported Percent Effect for Cc1cc(CN2CCCC2Cn2cncn2)no1 (centres undefined) when you can.
Output: 1.75

Input: Dear colleague, please send me the reported Percent Effect for `CC(=O)c1c(C)cc(C)c(CS(=O)(=O)c2nccn2C)c1C` when you can.
Output: -11.41

Input: Dear colleague, please send me the reported Percent Effect for `Cc1cccc2nc(CSCC(=O)Nc3nnc(C(C)C)s3)cc(=O)n12` when you can.
Output: 122.4

Input: Dear colleague, please send me the reported Percent Effect for COC(=O)C(C)NC(=O)CSCc1nc(O)c2cc(C(C)C)sc2n1 (centres undefined) when you can.
Output: 3.354

Input: Dear colleague, please send me the reported Percent Effect for c1cc(CNCC2CNc3ccnn3C2)cc(OC2CCCCC2)n1 (centres undefined) when you can.
Output: 87.88

Input: Dear colleague, please send me the reported Percent Effect for Cc1cc(-c2ccccc2)nc(C2CCCN2S(C)(=O)=O)n1 (centres undefined) when you can.
Output: 91.07

Input: Dear colleague, please send me the reported Percent Effect for CN1CCC2(Cc3ccccc3CN(C(=O)c3ccc(Cl)cc3)C2)C1 (centres undefined) when you can.
Output: 111.1

Input: Dear colleague, please send me the reported Percent Effect for CN1CCCC(NC(=O)c2ccc(C(=O)c3cc[nH]c3)cc2)C1 (centres undefined) when you can.
Output: 107.5
